Hello, the source for this data is patent US20220403048A1, in case you need it.

- STUDY_SYSTEM: T1, THP-1 lysate derived human trimeric ARG2 (human, UniProt P78540 23-354, limits assumed)
- T1 sequence (looked up): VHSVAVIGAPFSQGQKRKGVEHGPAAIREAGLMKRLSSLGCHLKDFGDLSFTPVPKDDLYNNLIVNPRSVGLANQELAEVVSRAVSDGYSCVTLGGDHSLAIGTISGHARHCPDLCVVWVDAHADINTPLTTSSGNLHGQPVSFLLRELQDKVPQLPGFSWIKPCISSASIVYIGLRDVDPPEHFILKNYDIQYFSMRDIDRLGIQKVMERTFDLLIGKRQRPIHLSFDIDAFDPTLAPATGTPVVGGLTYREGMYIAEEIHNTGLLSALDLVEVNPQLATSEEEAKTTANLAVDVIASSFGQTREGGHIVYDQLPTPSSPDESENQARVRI
- EXPERIMENT_NOTES: cell-based or functional assay
A collection of binders and their measured IC50 (M) THP-1 ARG2 (no plasma)
Write the quantity with the unit trailing the number.

Example binders with recorded IC50 (M) THP-1 ARG2 (no plasma):
Inquiry: Please report the recorded IC50 (M) THP-1 ARG2 (no plasma) for C0021139 recombinant human IgG1 (antibody, V domains shown) VH: EVQLLESGGGLVQPGGSLRLSCAASGFTFQYDYQVWVRQAPGKGLEWVSAISGSGGSTYYADSVKGRFTISRDNSKNTLYLQMNSLRAEDTAVYYCARLRADLGLYMDLWGRGTLVTVSS VL: QSVLTQPPSVSAAPGQKVTISCSGSSSNIGNHYVSWYQQLPGTAPKLLIYDNSERTSGIPDRFSGSKSGTSATLGITGLQTGDEADYYCGTWDELTSNLVFGGGTKLTVL .
Reply text: 5.75e-09 M

Inquiry: // IC50 (M) THP-1 ARG2 (no plasma) lookup, key: C0021092 recombinant human IgG1 (antibody, V domains shown) VH: EVQLLESGGGLVQPGGSLRLSCAASGFTFSRYAMSWVRQAPGKGLEWVSAHTHSPGSTYYADSVKGRFTISRDNSKNTLYLQMNSLRAEDTAVYYCARLRADLGLYMDLWGRGTLVTVSS VL: QSVLTQPPSVSAAPGQKVTISCSGSSSNIGNHYVSWYQQLPGTAPKLLIYNSVARPSGIPDRFSGSKSGTSATLGITGLQTGDEADYYCGTWDSSLSALVFGGGTKLTVL
Reply text: 6.56e-09 M

New cases:
Inquiry: I am curious: what IC50 (M) THP-1 ARG2 (no plasma) value has been reported for C0021022 recombinant human IgG1 (antibody, V domains shown) VH: EVQLLESGGGLVQPGGSLRLSCAASGFTFSSYAMSWVRQAPGKGPEWVSAISGFSPYYADSVKGRFTISRDNSKNTLYLQMNSLRAEDTAVYYCARLRADLGLYMDLWGRGTLVTVSS VL: QSVLTQPPSVSAAPGQKVTISCSGSSSNIGNHYVSWYQQLPGTAPKLLIYDNSERPSGIPDRFSGSKSGTSATLGITGLQTGDEADYYCGTWDSSLSALVFGGGTKLTVL ?
Reply text: 5.81e-09 M
